- Tested on: Saccharomyces cerevisiae
- test.details: Antimicrobial activity against Saccharomyces cerevisiae NBRC10114 after 3-5 days by broth dilution method
- particulars: NBRC10114, 3-5 days
endpoint: MIC (mg/L)

smi=C[C@@H](O)c1cc2c(o1)C(=O)c1cccc(O)c1C2=O data_value=3.13
smi=C[C@@H]1[C@H](O)[C@@H](C)/C=C/C=C/C=C/C=C/C=C/C=C/C=C/[C@H](O[C@@H]2O[C@H](C)[C@@H](O)[C@H](N)[C@@H]2O)C[C@@H]2O[C@](O)(C[C@@H](O)C[C@@H](O)[C@H](O)CC[C@@H](O)C[C@@H](O)CC(=O)O[C@H]1C)C[C@H](O)[C@H]2C(=O)O data_value=0.78
smi=CC(=O)c1cc2c(o1)C(=O)c1cccc(O)c1C2=O data_value=1.56
smi=C[C@H](O)c1cc2c(o1)C(=O)c1cccc(O)c1C2=O data_value=3.13

###

- System: Raji
- test.details: Inhibition of 12-O-tetradecanoylphorbol-13-acetate-induced EBV-early antigen activation in human Raji cells assessed as EA induction at 10 molar ratio after 48 hrs by immunofluorescence technique relative to 12-O-tetradecanoylphorbol-13-acetate
- Assay type: cell-based
- Set-up: scale not given: the % may be the effect or the level left
- particulars: human gammaherpesvirus 4
endpoint: Activity (%)

molecule="CC(O)c1cc2c(o1)C(=O)c1cccc(O)c1C2=O (racemic)" study_target=Raji data_value=52.9
molecule=C[C@H](O)c1cc2c(o1)C(=O)c1c(O)cccc1C2=O study_target=Raji data_value=80.5
molecule=C[C@H](O)c1cc2c(o1)C(=O)c1cccc(O)c1C2=O study_target=Raji data_value=50
molecule=COc1cc(/C=C/C(=O)CC(=O)/C=C/c2ccc(O)c(OC)c2)ccc1O study_target=Raji data_value=95.8
molecule=CC(=O)c1cc2c(o1)C(=O)c1c(O)cccc1C2=O study_target=Raji data_value=60.3
